Target: hydroxymethyldihydropteridine pyrophosphokinase (HMPPS) (Escherichia coli)
Construct: obtained from an extract of E. coli; endogenous in cells; host or cells: E. coli extract; HMPPS separated from synthetase on Sephadex G-100 (method of Richey and Brown 1969)
Sequence (P26281 whole entry): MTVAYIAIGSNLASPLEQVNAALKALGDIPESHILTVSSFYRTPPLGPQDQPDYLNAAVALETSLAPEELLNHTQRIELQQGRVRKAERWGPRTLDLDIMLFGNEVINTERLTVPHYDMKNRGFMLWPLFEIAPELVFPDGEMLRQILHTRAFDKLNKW
Experiment: HMPPS assay: transfer of terminal phosphate of ATP-γ-P^32 to Pt
Assay type: biochemical, E. coli
Settings: read-out: IC50
Description: (a) An assay for HMPPS was developed in which the transfer of the terminal phosphate of ATP-γ-P^32 to Pt could be monitored and correlated with the amount of inhibition of HMPPS by the compound under test. […] Tubes 1 to 9 containing the amounts of components shown in the Table, were filled up to 200 μl with distilled water, incubated for 60 minutes at 37° C. and then chilled on ice. […] The Charcoal and the filter were then radioactively counted. […]
measurement_type: IC50 (µM)
Numbers only, in µM.

Recorded result, CC1=Nc2c(O)nc(N)nc2NC1(C)C , IC50: 75

###

Biological target: hydroxymethyldihydropteridine pyrophosphokinase (HMPPS) (Escherichia coli)
Construct: obtained from an extract of E. coli; endogenous in cells; host or cells: E. coli extract; HMPPS separated from synthetase on Sephadex G-100 (method of Richey and Brown 1969)
Experiment: HMPPS assay: transfer of terminal phosphate of ATP-γ-P^32 to Pt
Assay type: biochemical, E. coli
measurement_type: IC50

Recorded result, CC1(C)Nc2nc(N)nc(O)c2N=C1CO , IC50: 2 to 4 µM
